system: AURKC; conditions: concentration: 1 μM, replicates: in singlicate; n = 1;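 note: KINOMEscan kinase panel screen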
Listed here: items and their measured %Inh.
Field format: number, assumed %, no unit text.

Worked examples, 2 compounds total:
- compound structure: "O=C(Nc1n[nH]c2nc(-c3ccccc3O)ccc12)C1CC1"
  %Inh [%]: 6
- compound structure: "Fc1cc(Cl)ccc1Nc1ccnc2cc(-c3ccc(CN4CCSCC4)o3)ccc12"
  %Inh [%]: 18

Noted for `CN(C)c1ncnc2nc[nH]c12` : its %Inh reads 0

###

test system: CDK11; construct: gene CDK19; conditions: concentration: 1 μM, replicates: in singlicate; n = 1
endpoint label: %Inh (%)
Field format: number, assumed %, no unit text.

- compound: "O=C(Nc1c(F)cccc1F)c1cc(C(=O)c2ccccc2F)c[nH]1 [GSK1326180]"
  %Inh / %: 6
- compound: "CSc1ccc(NC2=C(c3ccc(Cl)cc3)C(=O)NC2=O)cc1 [SB-317658]"
  %Inh / %: 0
- compound: "COc1cc(Nc2nccc(N3CCC(NS(=O)(=O)c4ccc(NC(C)=O)cc4)CC3)n2)cc(OC)c1OC [GSK1379825]"
  %Inh / %: 0
- compound: "Fc1cc(Cl)ccc1Nc1ccnc2cc(-c3ccc(CN4CCOCC4)o3)ccc12 [GW560109]"
  %Inh / %: 0

Now take the following compound into account.
Noted for Cc1ccc(-c2ccc3occ(-c4ccc(S(C)=O)cc4)c3c2)nn1 (centres unmarked) : its %Inh reads 29

###

Listed here: items and their measured %Inh.
test system: FLT3-autoinhibited; conditions: concentration: 1 μM, replicates: in singlicate; n = 1
Field format: number, assumed %, no unit text.

Worked examples, 5 molecules total:
- compound structure: "COC(=O)Nc1nc2cc(Oc3ccc(NC(=O)Nc4cccc(SC)c4)cc3)ccc2[nH]1.Cl"
  endpoint label: "%Inh"
  output unit: "%"
  result: 22
- compound structure: "Cn1cc(-c2ccc3c(c2)CCN3C(=O)Cc2cc(F)cc(C(F)(F)F)c2)c2c(N)ncnc21"
  endpoint label: "%Inh"
  output unit: "%"
  result: 13
- compound structure: "Cc1cc(-c2c(-c3ccc(F)cc3)ncn2CCCN2CCOCC2)nc(N)n1"
  endpoint label: "%Inh"
  output unit: "%"
  result: 0
- compound structure: "COc1ccc(C2=C(Nc3cccc(O)c3)C(=O)NC2=O)cc1"
  endpoint label: "%Inh"
  output unit: "%"
  result: 0
- compound structure: "CN(C)CCOc1ccc(-c2cc(-c3ccc(Cl)c(O)c3)c(-c3ccncc3)[nH]2)cc1.Cl.Cl"
  endpoint label: "%Inh"
  output unit: "%"
  result: 17

Noted for `Nc1cccc(-c2ccc3c(N)n[nH]c3c2)c1` : its %Inh reads 0

###

Listed here: items and their measured %Inh.
system: STK35; conditions: concentration: 1 μM, replicates: in singlicate; n = 1
Field format: number, assumed %, no unit text.

Worked examples, 2 compounds total:
- compound: "Cc1ccccc1CC(=O)N1CCc2cc(-c3cn(C)c4ncnc(N)c34)ccc21"
  endpoint label: "%Inh"
  result: 2
- compound: "Cc1ccc(-c2ccc3occ(-c4ccc(S(C)=O)cc4)c3c2)nn1 (stereo not shown)"
  endpoint label: "%Inh"
  result: 0

Noted for `COC(=O)Nc1nc2ccc(Oc3ccc(NC(=O)Nc4cc(C(F)(F)F)ccc4F)cc3)cc2[nH]1.Cl` : its %Inh reads 0

Noted for `CC(C)c1nc(-c2ccc(F)c(NS(=O)(=O)c3c(F)cccc3F)c2)c(-c2ccnc(Nc3ccc(N4CCOCC4)nc3)n2)s1` : its %Inh reads 74

Noted for `CS(=O)(=O)c1cccc(CNc2nc(Nc3ccc4c(c3)CCC(=O)N4)ncc2C(F)(F)F)c1` : its %Inh reads 0

Noted for `Cc1ccc(O)cc1Nc1ccnc2cc(-c3ccc(CN4CCCCC4)o3)ccc12` : its %Inh reads 0

Noted for COc1cc(Nc2nccc(N3CCC(NC(=O)Nc4ccc5c(c4)OCO5)C3)n2)cc(OC)c1OC (stereo not shown) : its %Inh reads 0
